- System: VchCAST RNA-guided transposition machinery (E. coli BL21(DE3) host, lacZ target)
- protocol_text: relative integration efficiency (T-RL orientation) vs wild-type transposon end (log2 (normalized fold change)); transposon end mutated: right end (5 bp flank + 75 bp right end); higher = more efficient transposition

[
  {
    "biosequence": "AACGGTGTTGATACAACCATAAAATGATAATTACACCCATAAATTGATAATTATCACACCCATAAATTGATATTGCCTCTGATCATAGTCAGACCAACATTGCTACGACCCGTATTCGCACCGACAC",
    "relative integration efficiency (log2)": -0.153
  },
  {
    "biosequence": "ACATTTGTTGATACAACCATAAAGTGATATTTACACCCATAAATTGATATTGCTCACAACCATAAAGTGATATTTACTCTGATCATAGTCAGACCAACATTGCTACGACCCGTATTCGCACCGACAC",
    "relative integration efficiency (log2)": -0.237
  },
  {
    "biosequence": "ACATTTGTTGATACAACCATTAAATGGTAATTCCACCCAAATATTGATAATTATCACACCCAATTTAACTATAACGCTCTGATCATAGTCAGACCAACATTGCTACGACCCGTATTCGCACCGACAC",
    "relative integration efficiency (log2)": -2.19
  }
]

----------
sequences and their reported relative integration efficiency (log2)
- Tested on: VchCAST RNA-guided transposition machinery (E. coli BL21(DE3) host, lacZ target)
- protocol_text: relative integration efficiency (T-LR orientation) vs wild-type transposon end (log2 (normalized fold change)); transposon end mutated: right end (5 bp flank + 75 bp right end); higher = more efficient transposition

[
  {
    "biosequence": "ACATTTGTGGATACAACCATAAAACGATAATTACACCCATAAATTGATCATTATCACACCCAATTTAACTATAACGCTCTGATCATAGTCAGACCAACATTGCTACGACCCGTATTCGCACCGACAC",
    "target_of_assay": "VchCAST RNA-guided transposition machinery (E. coli BL21(DE3) host, lacZ target)",
    "relative integration efficiency (log2)": 2.1
  },
  {
    "biosequence": "ACATTTGTTGATACAACCCTAAAATGATAATTACACCCCTAAATTGATAATTATCACACCCCTAAATTGATATTGCCTCTGATCATAGTCAGACCAACATTGCTACGACCCGTATTCGCACCGACAC",
    "target_of_assay": "VchCAST RNA-guided transposition machinery (E. coli BL21(DE3) host, lacZ target)",
    "relative integration efficiency (log2)": -3.01
  },
  {
    "biosequence": "ACTAAAGTTGATACAACCATAAAATGATAATTACACCCATAAATTGATAATTATCACACCCATAAATTGATATTGCCTCTGATCATAGTCAGACCAACATTGCTACGACCCGTATTCGCACCGACAC",
    "target_of_assay": "VchCAST RNA-guided transposition machinery (E. coli BL21(DE3) host, lacZ target)",
    "relative integration efficiency (log2)": -4.99
  },
  {
    "biosequence": "ACATTTGCTGATACAACCATATAATGATAATAACACCCATAAAATGATAATTATCACACCCAATTTAACTATAACGCTCTGATCATAGTCAGACCAACATTGCTACGACCCGTATTCGCACCGACAC",
    "target_of_assay": "VchCAST RNA-guided transposition machinery (E. coli BL21(DE3) host, lacZ target)",
    "relative integration efficiency (log2)": 0.121
  },
  {
    "biosequence": "ACATTTGTTGATACAACCATAAAATGATAATTACACCCATAAATTGATAATTATCACAGGGTTAAATTGATATTGCCTCTGATCATAGTCAGACCAACATTGCTACGACCCGTATTCGCACCGACAC",
    "target_of_assay": "VchCAST RNA-guided transposition machinery (E. coli BL21(DE3) host, lacZ target)",
    "relative integration efficiency (log2)": 2.33
  }
]
